IC50 reference
Tested on: pCHK1 (S345) in Colo320 DM cells
Assay: Alphalisa assay, detection of pCHK1 (S345) in Colo320 DM cells
Type: cell-based, human
Settings: Homo sapiens, COLO 320DM, compound overnight (approximately 16 hours)
readout type: IC50

compound: Cc1ccc(F)c([C@@H](C)[C@@H](c2n[nH]c(=O)o2)N2CN(C)c3cc(Cl)cc(C(=O)N(C)C)c3S2(=O)=O)c1C [Example 37]
reading: > 50000 nM
//
compound: Cc1ccc(F)c([C@@H](C)[C@@H](c2n[nH]c(=O)o2)N2CN(CC3COC3)c3cc(Cl)ccc3S2(=O)=O)c1C [Example 83]
reading: ≤ 1000 nM
//
compound: Cc1ccc(F)c([C@@H](C)[C@@H](c2n[nH]c(=O)o2)N2CN(C3CCCN(C)C3)c3cc(Cl)ccc3S2(=O)=O)c1C (stereo partly shown) [Example 51]
reading: ≤ 1000 nM
//
compound: Cc1ccc(F)c([C@@H](C)[C@@H](c2n[nH]c(=O)o2)N2CN(CCN(C)C)c3cc(Cl)ccc3S2(=O)=O)c1C [Example 38]
reading: ≤ 1000 nM
//
compound: Cc1ccc(F)c([C@@H](C)[C@@H](c2n[nH]c(=O)o2)N2CN(CCN3CCCC3)c3cc(Cl)ccc3S2(=O)=O)c1C [Example 80]
reading: ≤ 1000 nM
//
compound: Cc1ccc(F)c([C@@H](C)[C@@H](c2n[nH]c(=O)o2)N2CN(C3CCCOC3)c3cc(Cl)ccc3S2(=O)=O)c1C (stereo in doubt) [Example 43]
reading: ≤ 1000 nM
//
compound: CCCN1CN([C@H](c2n[nH]c(=O)o2)[C@H](C)c2c(F)ccc(C)c2C)S(=O)(=O)c2ccc(Cl)cc21 [Example 10]
reading: ≤ 1000 nM
//
compound: Cc1ccc(F)c([C@@H](C)[C@@H](c2n[nH]c(=O)o2)N2CN(CCN3CCOCC3)c3nc(Cl)ccc3S2(=O)=O)c1C [Example 93]
reading: ≤ 1000 nM
//
compound: Cc1ccc(F)c([C@@H](C)[C@@H](c2n[nH]c(=O)o2)N2CN(C3CCN(C)CC3)c3cc(Cl)ccc3S2(=O)=O)c1C [Example 47]
reading: 1000 to 5000 nM
//
compound: Cc1ccc(F)c([C@@H](C)[C@@H](c2n[nH]c(=O)o2)N2CN([C@H]3CCOC(C)(C)C3)c3cc(Cl)ccc3S2(=O)=O)c1C (single isomer, unassigned) [Example 90]
reading: ≤ 1000 nM
//
compound: Cc1ccc(F)c([C@@H](C)[C@@H](c2n[nH]c(=O)o2)N2CN(C)C(=O)c3cc(Cl)ccc3S2(=O)=O)c1C [Example 35]
reading: 10000 to 50000 nM
//
compound: Cc1ccc(F)c([C@@H](C)[C@@H](c2n[nH]c(=O)o2)N2COc3cc(Cl)ccc3S2(=O)=O)c1C [Example 7]
reading: ≤ 1000 nM
//
compound: Cc1ccc(F)c([C@H](C)[C@@H](c2n[nH]c(=O)o2)N2CN(C)c3cc(Cl)cc(C(=O)N(C)C)c3S2(=O)=O)c1C [Example 39]
reading: > 50000 nM
//
compound: Cc1ccc(F)c([C@@H](C)[C@@H](c2n[nH]c(=O)o2)N2CN(CCN3CCCC3)c3nc(Cl)ccc3S2(=O)=O)c1C [Example 92]
reading: 1000 to 5000 nM
//
compound: COCCCN1CN([C@H](c2n[nH]c(=O)o2)[C@H](C)c2c(F)ccc(C)c2C)S(=O)(=O)c2ccc(Cl)nc21 [Example 48]
reading: ≤ 1000 nM
//
compound: Cc1ccc(F)c([C@@H](C)[C@@H](c2n[nH]c(=O)o2)N2CN(C)c3cc(Cl)cnc3S2(=O)=O)c1C [Example 5]
reading: 1000 to 5000 nM
//
compound: CC(=O)c1cc(Cl)cc2c1S(=O)(=O)N([C@H](c1n[nH]c(=O)o1)[C@H](C)c1c(F)ccc(C)c1C)CCO2 [Example 60]
reading: ≤ 1000 nM
//
compound: Cc1ccc(F)c(C(C)[C@@H](c2n[nH]c(=O)o2)N2CCOc3c(ccc(Cl)c3C(C)(C)O)S2(=O)=O)c1C (stereo partly shown) [Example 40]
reading: 5000 to 10000 nM
//
compound: COC(=O)c1cc(Cl)cc2c1S(=O)(=O)N([C@H](c1n[nH]c(=O)o1)[C@H](C)c1c(F)ccc(C)c1C)CCO2 [Example 18]
reading: 10000 to 50000 nM
//
compound: COCCCN1CN([C@H](c2n[nH]c(=O)o2)[C@H](C)c2c(F)ccc(C)c2C)S(=O)(=O)c2ccc(Cl)cc21 [Example 30]
reading: ≤ 1000 nM
//
compound: Cc1ccc(F)c([C@@H](C)[C@@H](c2n[nH]c(=O)o2)N2CCOc3cc(Cl)c(CO)cc3S2(=O)=O)c1C [Example 77]
reading: > 50000 nM
//
compound: Cc1ccc(F)c([C@@H](C)[C@@H](c2n[nH]c(=O)o2)N2CN(OCc3ccccc3)c3cc(Cl)ccc3S2(=O)=O)c1C [Example 114]
reading: 5000 to 10000 nM
//
compound: COCc1cc2c(cc1Cl)OCCN([C@H](c1n[nH]c(=O)o1)[C@H](C)c1c(F)ccc(C)c1C)S2(=O)=O [Example 69]
reading: > 50000 nM
//
compound: Cc1ccc(F)c([C@@H](C)[C@@H](c2n[nH]c(=O)o2)N2CCOc3c(ccc(Cl)c3[C@H](C)N(C)C)S2(=O)=O)c1C (single isomer, unassigned) [Example 53]
reading: 1000 to 5000 nM
//
compound: Cc1ccc(F)c([C@@H](C)[C@@H](c2n[nH]c(=O)o2)N2CC(=O)N(C)c3cc(Cl)ccc3S2(=O)=O)c1C [Example 14]
reading: 1000 to 5000 nM
